assay-comment: Cytostatic activity against human HeLaS3 cells
Assay type: ADME, cell-based
assay-context: hela s3

- compound-structure-string: "COC(=O)CCCN(CCn1cnc2c(=O)[nH]c(N)nc21)CCP(=O)(O)O"
  Activity: "Non-toxic"
- compound-structure-string: "COC(=O)CCN(CCn1cnc2c(=O)[nH]cnc21)CCP(=O)(O)O"
  Activity: "Non-toxic"
- compound-structure-string: "CCOC(=O)CN(CCn1cnc2c(=O)[nH]cnc21)CCP(=O)(O)O"
  Activity: "Non-toxic"
- compound-structure-string: "N#CCCCN(CCn1cnc2c(=O)[nH]c(N)nc21)CCP(=O)(O)O"
  Activity: "Non-toxic"
- compound-structure-string: "O=c1[nH]cnc2c1ncn2CCN(CCP(=O)(O)O)CCP(=O)(O)O"
  Activity: "Non-toxic"
- compound-structure-string: "COC(=O)CCCN(CCn1cnc2c(=O)[nH]cnc21)CCP(=O)(O)O"
  Activity: "Non-toxic"
- compound-structure-string: "O=C(O)CCCN(CCn1cnc2c(=O)[nH]cnc21)CCP(=O)(O)O"
  Activity: "Non-toxic"
- compound-structure-string: "Nc1nc2c(ncn2CCN(CCCC(=O)O)CCP(=O)(O)O)c(=O)[nH]1"
  Activity: "Non-toxic"
- compound-structure-string: "Nc1nc2c(ncn2CCN(CCO)CCP(=O)(O)O)c(=O)[nH]1"
  Activity: "Non-toxic"
- compound-structure-string: "N#CCCN(CCn1cnc2c(=O)[nH]cnc21)CCP(=O)(O)O"
  Activity: "Non-toxic"
- compound-structure-string: "Nc1nc2c(ncn2CCN(CCP(=O)(O)O)CC(=O)O)c(=O)[nH]1"
  Activity: "Non-toxic"
- compound-structure-string: "N#CCCCN(CCn1cnc2c(=O)[nH]cnc21)CCP(=O)(O)O"
  Activity: "Non-toxic"
- compound-structure-string: "COC(=O)CCN(CCn1cnc2c(=O)[nH]c(N)nc21)CCP(=O)(O)O"
  Activity: "Non-toxic"
- compound-structure-string: "N#CCN(CCn1cnc2c(=O)[nH]c(N)nc21)CCP(=O)(O)O"
  Activity: "Non-toxic"
- compound-structure-string: "O=C(O)CCN(CCn1cnc2c(=O)[nH]cnc21)CCP(=O)(O)O"
  Activity: "Non-toxic"
- compound-structure-string: "O=C(O)CN(CCn1cnc2c(=O)[nH]cnc21)CCP(=O)(O)O"
  Activity: "Non-toxic"
- compound-structure-string: "Nc1nc2c(ncn2CCNCCP(=O)(O)O)c(=O)[nH]1"
  Activity: "Non-toxic"
- compound-structure-string: "Nc1nc2c(ncn2CCN(CCP(=O)(O)O)CCP(=O)(O)O)c(=O)[nH]1"
  Activity: "Non-toxic"
- compound-structure-string: "CCOC(=O)CN(CCn1cnc2c(=O)[nH]c(N)nc21)CCP(=O)(O)O"
  Activity: "Non-toxic"
- compound-structure-string: "Nc1nc2c(ncn2CCN(CCC(=O)O)CCP(=O)(O)O)c(=O)[nH]1"
  Activity: "Non-toxic"
- compound-structure-string: "O=c1[nH]cnc2c1ncn2CCNCCP(=O)(O)O"
  Activity: "Non-toxic"
- compound-structure-string: "N#CCN(CCn1cnc2c(=O)[nH]cnc21)CCP(=O)(O)O"
  Activity: "Non-toxic"
- compound-structure-string: "O=c1[nH]cnc2c1ncn2CCN(CCO)CCP(=O)(O)O"
  Activity: "Non-toxic"
- compound-structure-string: "N#CCCN(CCn1cnc2c(=O)[nH]c(N)nc21)CCP(=O)(O)O"
  Activity: "Non-toxic"
